System: LOX IMVI melanoma
procedure-details: NCI-60 one-dose screen, 48 h (100 = growth as untreated, 0 = no growth, -100 = all killed)
test-parameters: 10 µM unless noted
Compounds without any hit were thinned out: in the full panel of roughly 83,000, 20% have a hit.
Listed here are compounds together with their documented growth.
parameter-measured: growth (%)

1) CO[C@H]1C[C@@H]2CC[C@@H](C)[C@@](O)(O2)C(=O)C(=O)N2CCCC[C@H]2C(=O)O[C@H]([C@H](C)C[C@@H]2CC[C@@H](O)[C@H](OC)C2)CC(=O)[C@H](C)/C=C(\C)[C@@H](O)[C@@H](OC)C(=O)[C@H](C)C[C@H](C)\C=C/C=C/C=C/1C    26.7
2) C[C@@H](C[C@H](CCO)c1cc(C(F)(F)F)cc(C(F)(F)F)c1)c1ccc2ccccc2c1    87.3
3) COc1ncc(-c2ccc3nccc(-c4ccnnc4)c3c2)cc1NS(=O)(=O)c1ccc(F)cc1F    -42.8
4) COc1cc(Nc2ncc(F)c(Nc3ccc4c(n3)NC(=O)C(C)(C)O4)n2)cc(OC)c1OC    9.51
5) CC(C)(C)C(=O)OCOP(=O)(OCOC(=O)C(C)(C)C)C1CCCN(OC(=O)c2ccccc2)C1=O (configuration not stated)    40.1
6) CC(CCCC(=O)O)c1ccoc1 (configuration not stated)    97.8
7) Cc1cc(N(CCNc2ccnc3cc(Cl)ccc23)Cc2ccc3c(c2)OCO3)nc(N2CCN(C)CC2)n1    -71.8
8) O=C(c1ccc(/C=C/c2n[nH]c3ccccc23)cc1)N1CCNCC1    5.66
9) COc1cc2ncnc3c2cc1OCCCCCN(C)Cc1ccc(Br)cc1N3    32.8
10) COc1ccc(-c2cnc(-c3ccc(Cl)cc3)[nH]2)cc1OC    110
11) CNC(=O)c1cc(Oc2ccc3nc(NC(=O)Nc4ccc(Cl)c(C(F)(F)F)c4)sc3c2)ccn1    1.46
12) CC[C@@H]1C(=O)N(C)c2cnc(Nc3ccc(C(=O)NC4CCN(C)CC4)cc3OC)nc2N1C1CCCC1    -73.5
13) O=C(Nc1ccc(-c2ccnc(Nc3ccc(N4CCOCC4)cc3)n2)cc1)[C@@H]1CCCN1    30.4
14) CCn1cc(-c2ccnc3[nH]c(-c4cccc(CN(C)C)c4)cc23)c(-c2ccc(NC(=O)N(C)C)cc2)n1    -76.9
15) Cc1ccc(F)c(NC(=O)Nc2ccc(-c3cccc4[nH]nc(N)c34)cc2)c1    -8.35
16) CC[C@H](CO)Nc1nc(NCc2ccccc2)c2ncn(C(C)C)c2n1    51.1
17) CC[C@@H]1C(=O)N(C)c2cnc(Nc3ccc(C(=O)NC4CCC(N5CCN(CC6CC6)CC5)CC4)cc3OC)nc2N1C(C)C (some centres not stated)    -72.1

----------
Test system: HCC-2998 colon
procedure-details: NCI-60 one-dose screen, 48 h (100 = growth as untreated, 0 = no growth, -100 = all killed)
test-parameters: 10 µM
The panel holds about 83,000 compounds, 20% with a hit somewhere; the sample as a whole holds those more often.
Decide by growth: equal to or exceeding 50% means Condition met, less means Condition not met.

1) C/C(=N\NC(=O)Cn1c(-c2ccc(S(C)(=O)=O)cc2)nc2ccccc21)c1ccc(Cl)cc1    Condition met
2) CCc1nc2cc(F)c(/C=C/C(=O)NO)cc2c(=O)n1CCc1ccccc1    Condition not met
3) CCOC(=O)C1=C(C)NC(=O)NC1c1cc(=O)oc2ccc(C)cc12 (stereo not drawn)    Condition met
4) COc1ccc(Nc2ncccc2NC(=O)c2cn(Cc3cccc(Oc4ccccc4)c3)nn2)cc1    Condition met
5) COc1ccc2c(CCc3ccc(Cl)cc3)c3[n+](cc2c1OC)CCc1cc2c(cc1-3)OCO2    Condition not met
6) Cc1cc2c(-c3nc4ccccn4c3Nc3cccc4ccccc34)c(O)c(O)cc2c(O)c1-c1c(C)cc2c(-c3nc4ccccn4c3Nc3cccc4ccccc34)c(O)c(O)cc2c1O    Condition not met
7) COC(=O)Nc1nc2ccc(C(=O)c3ccc(N(C)C4COC4)cc3)cc2[nH]1    Condition not met

----------
System: KM12 colon
procedure-details: NCI-60 one-dose screen, 48 h (100 = growth as untreated, 0 = no growth, -100 = all killed)
test-parameters: 10 µM unless noted
Procedure: Growth inhibition of the KM12 human tumor cell line is measured as a screen for anti-cancer activity. Cells are grown in 96 well plates and exposed to the test compound for 48 hours. Compounds are tested at a single concentration, which is 10^-5 M for most compounds. The reported endpoint is percent growth (GI% or GIPRCNT), where numbers from 0 - 100% represent growth inhibition, and numbers from -100% - 0 represent cell death. For example, a value of 40 represents 60% growth inhibition. […]
Compounds without any hit were thinned out: in the full panel of roughly 83,000, 20% have a hit.
Please assign class 0 whenever growth is at or above 60%, and class 1 whenever it is below.

1. COc1cnc2c(c1)C(=O)c1c-2n(CCCn2ccnc2)c(=O)c2cc(Cl)ccc12    class 1
2. Nc1ccc(S(=O)(=O)O)c2cc(S(=O)(=O)O)cc(O)c12    class 0
3. COc1cc(OC)c(/C=C/S(=O)(=O)Cc2ccc(OC)c(NCC(=O)O)c2)c(OC)c1    class 1
4. Cc1cc(N(CCNc2ccnc3cc(Cl)ccc23)Cc2ccc3c(c2)OCO3)nc(N2CCN(C)CC2)n1    class 0
5. C#Cc1cccc(Nc2ncnc3cc(OC)c(OCCCCCCC(=O)NO)cc23)c1    class 1
6. COc1ccc(-c2cnc(-c3ccc(Cl)cc3)[nH]2)cc1OC    class 0
7. COc1ccc2c(CCC(c3ccccc3)c3ccccc3)c3[n+](cc2c1OC)CCc1cc2c(cc1-3)OCO2    class 1
8. CC(C)CC(=O)Nc1n[nH]c2c1CN(C(=O)C1CCN(C)CC1)C2(C)C    class 1
9. Cc1cc(C)n(CC(=O)Nc2ccc(-c3nc4ccccc4s3)cc2)n1    class 0
10. COc1cc(N2CCC(N(C)C)CC2)ccc1Nc1ncc(Cl)c(Nc2ccccc2P(C)(C)=O)n1    class 1
11. C=CCN1C(=O)c2cccc3c(-c4ccc5c(c4)ncn5C4CCCCC4)ccc(c23)C1=O    class 1
12. O=C(CNc1nnc(-c2ccc(Cl)cc2)o1)Nc1ccc(-c2nc3ccccc3s2)cc1    class 0
13. COc1ccc2c(CCCC(c3ccccc3)c3ccccc3)c3[n+](cc2c1OC)CCc1cc2c(cc1-3)OCO2    class 1
14. Cc1cn(-c2cc(NC(=O)c3ccc(C)c(Nc4nccc(-c5cnccn5)n4)c3)cc(C(F)(F)F)c2)cn1    class 1
15. Cn1ccnc1C(=O)/C=C/c1ccc(CC(=O)Nc2ccc(S(F)(F)(F)(F)F)cc2)cc1    class 1
16. COC(=O)[C@@H](OC)[C@@H]1Cc2cc3cc(OC4CC(OC5CC(O)C(O)C(C)O5)C(O)C(C)O4)c(C)c(O)c3c(O)c2C(=O)[C@H]1OC1CC(OC2CC(OC3CC(C)(O)C(O)C(C)O3)C(O)C(C)O2)C(O)C(C)O1 (stereo partly drawn)    class 1
17. CC(N)C(Cc1ccc(Cl)cc1)c1ccc(Cl)cc1 (stereo not drawn)    class 0
18. O=C1NC(=O)[C@@H](c2cn3c4c(cccc24)CCC3)[C@@H]1c1c[nH]c2ccccc12    class 1

----------
# reported growth; entries follow
Test system: HOP-62 NSCLC
procedure-details: NCI-60 one-dose screen, 48 h (100 = growth as untreated, 0 = no growth, -100 = all killed)
test-parameters: 10 µM unless noted
Compounds without any hit were thinned out: in the full panel of roughly 83,000, 20% have a hit.
parameter-measured: growth (%)

1. O=C(N/N=C/c1ccc(Cl)cc1)c1cc(-c2cc3ccccc3o2)nn1-c1ccccc1    97.3
2. CCOC(=O)c1sc(NC(=O)COc2ccc(/C=C3\Cc4ccc(Cl)cc4C3=O)cc2)nc1C    109
3. S=C(NCc1ccc2c(c1)OCO2)N1CCN(c2ncnc3c2oc2ccccc23)CC1    30.7
4. CCN(CCO)CCCOc1ccc2c(Nc3cc(CC(=O)Nc4cccc(F)c4)[nH]n3)ncnc2c1    35.7
5. C=CC(=O)Nc1cccc(Nc2nc(Nc3ccc(N4CCN(C(C)=O)CC4)cc3OC)ncc2C(F)(F)F)c1    27.6
6. COc1ccc2c(CCCCC(c3ccccc3)c3ccccc3)c3[n+](cc2c1OC)CCc1cc2c(cc1-3)OCO2    -42.7
7. Cc1nn(-c2ccccc2)c2c1N=c1s/c(=C\c3cn(-c4ccccc4)nc3-c3ccc(Cl)cc3)c(=O)n1C(C)N2 (stereo not drawn)    102
8. Cc1cccc(NC(=O)[C@@H]2c3ccccc3C(=O)N(c3ccc(Cl)cc3)[C@H]2c2ccc(Cl)cc2)n1    53.1
9. CNC(=O)c1ccc(Nc2ncc(C(F)(F)F)c(NCc3nccnc3N(C)S(C)(=O)=O)n2)cc1    -23.5
10. N#Cc1ccc(-n2nnc3ccccc32)cc1C#N    94.6
11. Cn1ccnc1C(=O)/C=C/c1ccc(CC(=O)Nc2ccc(S(F)(F)(F)(F)F)cc2)cc1    -73
12. Oc1ccc(/C=N/Nc2nnc(N/N=C/c3ccc(O)cc3O)c3ccccc23)c(O)c1    -31.6
13. COCc1c(-c2ccc(NC(=O)Nc3cc(C(F)(F)F)ccc3F)c(F)c2)c2c(N)ncnn2c1CN1CCOCC1    -58.9
14. CC(=Nc1ccccc1)C1=C(O)C(Cc2ccc(O)cc2)NC1=O (stereo not drawn)    19.8
15. O=C(Nc1nc2cccc(-c3ccc(CN4CCS(=O)(=O)CC4)cc3)n2n1)C1CC1    57.3
16. C=CCCCC(=O)CCC(=O)OCC1O[C@@H](O[C@@H]2C(O)[C@@H](OC(C)=O)C(C)O[C@H]2O[C@H](CC=C)CCCCC)C(O)[C@@H](OC(=O)/C(C)=C/C)[C@@H]1OC(=O)/C=C/c1ccccc1 (stereo partly drawn)    9.18
17. Nc1c(Cl)cccc1[N+](=O)[O-]    98.8
18. Cc1cc(-c2cc(OC(=O)c3ccccc3)ccc2Cl)cc2nnc(Nc3ccc(OCCN4CCCC4)cc3)nc12    50.2
